System: SW620
method-description: cell viability relative to lowest-dose well (resazurin, 96 h); higher = more viable
details: 0.001 µM; metabolite supplement: 50uM thymidine; RPMI + 10% FBS
measurement-label: cell viability (%)
Report only the number, with the unit % understood.

Recorded result, O=c1[nH]cc(F)c(=O)[nH]1 , cell viability: 100

Recorded result, CN(Cc1cnc2nc(N)nc(N)c2n1)c1ccc(C(=O)N[C@@H](CCC(=O)O)C(=O)O)cc1 [methotrexate] , cell viability: 96.3

Recorded result, Cc1c(N2CCN(C)[C@@H](C)C2)ccc2c3c(c(=O)oc12)CN(C(=O)c1ccc(NS(C)(=O)=O)c(OC(F)(F)F)c1)CC3 , cell viability: 99.1

Recorded result, Cc1[nH]nc2c1C(c1cc(CO)cc(-c3ccccc3)c1)(C(C)C)C(C#N)=C(N)O2 (centres undefined) , cell viability: 100
